src = ChEMBL document CHEMBL1201862

tested on: NCI-H23; experiment: NCI tumour cell line growth inhibition, 48 h
The source made the active and inactive calls. No stated cut-off is given here; in the data, active = GI50 up to about 1.1 µM and inactive = higher.
Permitted responses: 1 (yes) (active), 0 (no) (inactive)

| compound | group |
| --- | --- |
| Cc1ccc(-c2nc3cc([N+](=O)[O-])ccc3[nH]2)cc1 | 0 (no) |
| Nc1ncnc(NC2C=C(CO)C(O)C2O)c1[N+](=O)[O-] (stereo unspecified) | 0 (no) |
| NNC(=O)CNC(=O)c1ccc(Cl)cc1Cl | 0 (no) |
| COc1ccc(/C=C/C(=O)c2sc(NC(=S)NC(=O)c3ccccc3F)nc2C)cc1OC | 0 (no) |
| CC1=C(C#N)C(=C(C#N)C#N)OC1(C)Cc1ccccc1 (stereo unspecified) | 0 (no) |

Ask: Write down the call the test reported for this compound. Item: `c1ccc(C(=NNc2nc3ccccc3o2)c2ccccn2)nc1`
Result: 1 (yes)

Ask: What about this compound? `Cc1n(Cc2ccccc2)c2c([n+]1C)C(=O)c1ccccc1C2=O`
Result: 1 (yes)

Ask: What about this compound? `CN(C)C(=S)/N=c1\ssc(=S)n1Cc1cccnc1`
Result: 0 (no)

Ask: What about this compound? COC(=O)C(C(=O)C(=O)Nc1ccc(Br)cc1)c1nc2ccc(Cl)cc2nc1O (stereo unspecified)
Result: 0 (no)

Ask: What about this compound? O=C1CSC(c2cc3cc(Br)ccc3nc2Cl)N1c1ccc(Cl)cc1 (stereo unspecified)
Result: 0 (no)

Ask: What about this compound? `O=C(NNC(=S)Nc1ccccc1)C12CC3CC(CC(C3)C1)C2`
Result: 0 (no)

* * *

test system: HOP-18; experiment: NCI tumour cell line growth inhibition, 48 h
Activity calls are given as the source filed them. Cut-off read from the data, not from the text of the source: active = GI50 up to about 1.1 µM and inactive = higher.
// reported GI50 for each item listed

| compound | GI50 |
| --- | --- |
| COc1cccc(/C(Cl)=C(\C=O)c2cccc(OC)c2)c1 | 16.4 µM (inactive) |
| O=C(O)/C(Cl)=C(\Cl)C(=O)Nc1ccc(Cl)c(Cl)c1Cl | 16.3 µM (inactive) |

Proceeding to the next compound to report its GI50.
Ask: Please look up its GI50: C=C1CC2(CCS(=O)(=O)c3ccccc32)OC1=O (stereo not given)
Result: 3.63 µM (inactive)

* * *

test system: PC-3; assay: NCI tumour cell line growth inhibition, 48 h
Activity calls are given as the source filed them. Cut-off read from the data, not from the text of the source: active = GI50 up to about 1.1 µM and inactive = higher.
measuredEndpoint: GI50

Past entries and their recorded results:
| compound | observed |
| --- | --- |
| CC(=O)C1=C(C)O[C@@H]2O[C@H](COCc3ccccc3)[C@@H](OCc3ccccc3)[C@H](O)[C@@H]2S1 | 26.2 µM (inactive) |
| COC(=O)[C@H](Cc1ccccc1)NC(=O)N(CCNC(=O)OC(C)(C)C)c1ccccc1 | > 100 µM (inactive) |
| CCn1c(-c2ccccc2)nc2c1C(=O)c1ccccc1C2=O | 10.2 µM (inactive) |
| NC(=S)c1cccc(C2Nc3ccccc3O2)c1 (configuration not stated) | 51.2 µM (inactive) |
| O=C(Nn1c(-c2ccccc2)nc2ccccc2c1=O)c1ccc(CS)cc1 | 20.2 µM (inactive) |
| C=C(Cl)C(Br)(CBr)CCC(Br)C(C)(C)Br (configuration not stated) | > 10 µM (inactive) |

Ask: Please look up its GI50: `O=c1[nH]c2cc(C(F)(F)F)ccc2nc1CBr`
Result: 13.1 µM (inactive)

Ask: What about this compound? COc1ccc(C2Oc3c(cccc3-c3c(-c4ccc(O)cc4)oc4cc(O)cc(O)c4c3=O)C(=O)C2O)cc1O (configuration not stated)
Result: > 100 µM (inactive)

Ask: What about this compound? `CC(C)=NOC(=O)Nc1cccc2c1OCO2`
Result: > 100 µM (inactive)

Ask: What about this compound? `CC(=O)O[C@H]1C[C@H]2[C@@H](OC(C)=O)/C=C3\C[C@](C)(C(=O)[C@H](O)C(=C1C)C2(C)C)[C@@H](O)C[C@@H]3OC(=O)[C@H](O)[C@H](c1ccccc1)N(C)C`
Result: > 100 µM (inactive)

Ask: What about this compound? `Cn1c(=O)nc2n(-c3ccc(Cl)cc3)c3cc(Cl)ccc3nc-2c1=O`
Result: 9.42 µM (inactive)

Ask: What about this compound? CCC(C)C(=O)OCC(=O)c1ccc(-c2ccccc2)cc1 (configuration not stated)
Result: 63 µM (inactive)

* * *

tested on: LOX IMVI; assay: NCI tumour cell line growth inhibition, 48 h
The source made the active and inactive calls. Cut-off read from the data, not from the text of the source: active = GI50 up to about 1.1 µM and inactive = higher. Square brackets hold non-standard residues; d marks the D form. Peptide text beside a SMILES is read from it. pGlu = O=C1CC[C@@H](C(=O)O)N1; Thz = O=C(O)[C@@H]1CSCN1
Permitted responses: 1 = active, 0 = inactive

| compound | targetSystem | group |
| --- | --- | --- |
| COc1cc2c(ccc3c4cc(OC)c(OC)cc4c[n+](C)c23)cc1O | LOX IMVI | 0 |
| Cn1cnc([N+](=O)[O-])c1Sc1nc(N)nc2c1ncn2C1OC(CO)C(O)C1O (stereo not given) | LOX IMVI | 1 |
| COc1ccc(/N=C(C)/C(C)=N/c2ccc(OC)cc2)cc1 | LOX IMVI | 0 |
| CCC(CC)C(=O)OC[n+]1cccc(-c2c(COC(=O)NC(C)C)c(COC(=O)NC(C)C)c3n2CCC3)c1 | LOX IMVI | 0 |

Ask: Write down the call the test reported for this compound. Item: `Cn1c(=O)nc2n(-c3ccc(Cl)cc3)c3cc(Cl)ccc3nc-2c1=O`
Result: 0

Ask: What about this compound? CN1CCC23c4c5ccc(O)c4OC2c2[nH]c4ccccc4c2CC3(O)C1C5 (stereo not given)
Result: 0

Ask: What about this compound? O=C1CC[C@@H](C(=O)N2CSC[C@H]2C(=O)O)N1 [PIDOTIMOD] ([pGlu]-[Thz]-OH)
Result: 0

Ask: What about this compound? CC(C)(Br)C(Br)CC/C(=C/CBr)CBr.CC(C)(Br)C(Br)CC/C(=C\CBr)CBr (stereo not given)
Result: 1

Ask: What about this compound? `FC(F)(F)c1nc(-c2ccccc2)oc1Sc1nnc(Sc2oc(-c3ccccc3)nc2C(F)(F)F)s1`
Result: 0

Ask: What about this compound? CCOC(=O)C1S/C(=N\c2cccc(Cl)c2C)N=C1C (stereo not given)
Result: 0

Ask: What about this compound? `Cc1ccc2c(c1)C/C(=C\c1ccccc1C(=O)O)C2=O`
Result: 0

Ask: What about this compound? O=C1/C(=C\c2ccc([N+](=O)[O-])o2)SC2NC(COc3ccc(Cl)cc3)=NN12 (stereo not given)
Result: 0

Ask: What about this compound? `CCCCN(CCCC)C(=O)C(=O)CC(=O)c1ccc(Br)cc1`
Result: 0

* * *

system: MCF7; assay: NCI tumour cell line growth inhibition, 48 h
Activity calls are given as the source filed them. No stated cut-off is given here; in the data, active = GI50 up to about 1.1 µM and inactive = higher. Where a SMILES comes first, the peptide text is derived from it. [ ]: non-standard residue; d: D form. The star is where a group is joined. ξ: configuration not given here. X38 = O=C(OCc1ccccc1)[C@@H]1CCC[C@H]1N*; Fmoc = O=C(OCC1c2ccccc2-c2ccccc21)*; ξW = NC(Cc1c[nH]c2ccccc12)C(=O)O; ξF = NC(Cc1ccccc1)C(=O)O; Boc = CC(C)(C)OC(=O)*; ξK = NCCCCC(N)C(=O)O; ξT = CC(O)C(N)C(=O)O; tBu = CC(C)(C)*
Permitted responses: y for active, n for inactive

| molecule | group |
| --- | --- |
| COC(=O)c1ccccc1C1CN=NC12Cc1c(C)ccc(C)c1C2=O (stereo not drawn) | n |
| O=C1C=C(Nc2cccnc2)c2ccccc2/C1=N/O | n |
| O=C(CCN1CCCC1)Nc1ccc2sc3ccccc3c(=O)c2n1 | n |

Ask: Write down the call the test reported for this molecule. Item: CC(OC(C)(C)C)C(NC(=O)C(CCCCNC(=O)OC(C)(C)C)NC(=O)C(Cc1c[nH]c2ccccc12)NC(=O)C(Cc1ccccc1)NC(=O)OCC1c2ccccc2-c2ccccc21)C(=O)NC(Cc1ccccc1)C(=O)N[C@@H]1CCC[C@H]1C(=O)OCc1ccccc1 (stereo partly drawn) (Fmoc-[ξF][ξW][ξK](Boc)[ξT](tBu)[ξF]-X38)
Result: n

Ask: What about this molecule? `O=C(O)c1cc(C(=O)O)nc(C(=O)O)c1`
Result: n

Ask: What about this molecule? `Cc1n[nH]c(C(F)(F)F)c1/N=N/N1CCOCC1`
Result: n

* * *

system: ACHN; assay: NCI tumour cell line growth inhibition, 48 h
The source made the active and inactive calls. No stated cut-off is given here; in the data, active = GI50 up to about 1.1 µM and inactive = higher.
Permitted responses: 1 for active, 0 for inactive

Solved cases below.
| molecule | group |
| --- | --- |
| COc1nc(C(=O)O)c(Cl)c(OC)c1Cl | 0 |
| CN1C(=O)CCC1c1ccc2c(c1)oc(=O)n2C (stereo unspecified) | 0 |
| COc1ccc(-c2c(C#N)c(N)nc(Sc3ccccc3N)c2C#N)cc1 | 0 |
| O=c1cc(-c2ccccc2)[nH]c2ccc(N3CCOCC3)cc12 | 1 |

Please turn your attention to the following entry.
Ask: Write down the call the test reported for this molecule. Item: CC12CCC(=O)N1c1cc([N+](=O)[O-])ccc1N2 (stereo unspecified)
Result: 0
